- System: Bacillus subtilis
- measurement protocol: cleaved RNA product abundance (RNA/gDNA barcode ratio) relative to median wild-type variant (ratio to wild type); higher = more accumulation of the downstream cleavage product
- condition info: experiment (reporter, strain, medium): exp 6: tetM reporter, strain 168; cleavage site: cggR-gapA (positions -7 to +36 mutated)
Here, each record is paired with measured cleaved RNA product abundance data.
Please give only the number in your answer, with no unit.

# construct sequence, target desc, cleaved RNA product abundance
rows = [
    ("ACAGACGAAGGAGCCGCAAAGAAGTTATTAAGGGATGAATAATCCCACAATATAAATATCTCTCACTTATTTAAA", "Bacillus subtilis", 0.271),
    ("ACAGACGAAGGAGCCGCAAAGAAGTTATTAAGGGATGAATAATCCCTTAATAAAAATATCTCTCACTTATTTAAA", "Bacillus subtilis", 0.227),
    ("ACAGACGAAGGAGCCGCAAAGAAGTTATTAAGGGATGAATAATCCCTCAATATAAACATCTCTCACTTATTTAAA", "Bacillus subtilis", 0.847),
]

Ask: // returns reported cleaved RNA product abundance for input `ACAGACGAAGGAGCCGCAAAGAAGTTATTAAGGGAGGAATAATCCCTCAATATAAATATCTCTCACTTATTTAAA`
Reply: 0.591

Just for reference, the supplement of paper PMC11780869 is where these values come from.
